- target-entity: proMMP9(67-444;ΔFnII) (SEQ ID NO:5) (Homo sapiens, UniProt P14780, DEL216-390)
- Construct: start methionine (N)
- Sequence (P14780 with tags, fused parts or gaps DEL216-390): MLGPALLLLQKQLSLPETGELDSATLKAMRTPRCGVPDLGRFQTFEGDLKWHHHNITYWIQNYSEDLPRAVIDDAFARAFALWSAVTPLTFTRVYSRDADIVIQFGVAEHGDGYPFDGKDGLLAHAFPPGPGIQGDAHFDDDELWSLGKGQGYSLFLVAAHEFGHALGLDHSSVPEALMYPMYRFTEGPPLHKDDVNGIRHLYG
- procedure-details: ThermoFluor binding assay with proMMP9(67-444;ΔFnII)
- assay-conditions: pH 7.0
pKd: −log10 of the molar value.

>  <given-smiles>
Cc1nc(-c2ccncc2)sc1-c1csc(Nc2cc(C(N)=O)ccc2OC(C)C)n1

>  <pKd>
6.17

$$$$
>  <given-smiles>
CC(=O)Nc1nc(C)c(-c2csc(Nc3cc(S(N)(=O)=O)ccc3OC(C)C)n2)s1

>  <pKd>
6.10

$$$$
>  <given-smiles>
COc1ccc(C)cc1Nc1nc(-c2sc(NC(C)=O)nc2C)cs1

>  <pKd>
5.96

$$$$
>  <given-smiles>
CCOc1ccc(C(N)=O)cc1Nc1nc(-c2sc(C(=O)NC3CCN(C)CC3)nc2C)cs1

>  <pKd>
5.92

$$$$

---

- target-entity: proMMP9(20-445;ΔFnII) (SEQ ID NO:6) (Homo sapiens, UniProt P14780, DEL216-390)
- Construct: start methionine (N); made in house; host or cells: E. coli BL21(DE3) RIL
- Sequence (P14780 with tags, fused parts or gaps DEL216-390): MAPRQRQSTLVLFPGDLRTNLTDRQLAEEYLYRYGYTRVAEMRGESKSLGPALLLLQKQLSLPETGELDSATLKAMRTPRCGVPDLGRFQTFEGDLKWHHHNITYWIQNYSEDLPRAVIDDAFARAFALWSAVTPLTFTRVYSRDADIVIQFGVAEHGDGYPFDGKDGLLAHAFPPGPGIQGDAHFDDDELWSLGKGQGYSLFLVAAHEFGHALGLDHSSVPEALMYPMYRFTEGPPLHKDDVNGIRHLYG
- procedure-details: ThermoFluor binding assay with proMMP9(20-445;ΔFnII)
- assay-conditions: pH 7.0
pKd: −log10 of the molar value.
Each entry below carries its recorded pKd.

>  <given-smiles>
COc1ccc(-c2cn[nH]c2)cc1Nc1nc(-c2sc(C)nc2C)cs1

>  <pKd>
5.77

$$$$
>  <given-smiles>
Cc1nc(CN2CCOCC2)sc1-c1csc(Nc2cc(C(N)=O)ccc2OC(C)C)n1

>  <pKd>
6.19

$$$$
>  <given-smiles>
Cc1nc(C(=O)O)sc1-c1csc(Nc2cc(C(N)=O)ccc2OC(C)C)n1

>  <pKd>
6.12

$$$$
